system: p190- and p210-BCR-ABL1 expressing Ba/F3 cells; test: Cell survival, trypan blue exclusion; format: cell-based, murine; conditions: Mus musculus, BaF3; read-out: half maximal effective concentration (EC50), survival
Measured Endpoint: EC50

Fill in: EC50 of OC1(c2ccccn2)N=C(Nc2nc3ccccc3[nH]2)N=C1c1ccccn1 (stereo not shown) [IODVA1] is ___
380 nM

###

target: recombinant Vav3 (Homo sapiens, UniProt Q9UKW4); construct: His6; experiment: Microscale thermophoresis (MST) binding; conditions: one molecule of IODVA1 binds, read-out: binding affinity (Kd)
Sequence (Q9UKW4 whole entry, species assumed): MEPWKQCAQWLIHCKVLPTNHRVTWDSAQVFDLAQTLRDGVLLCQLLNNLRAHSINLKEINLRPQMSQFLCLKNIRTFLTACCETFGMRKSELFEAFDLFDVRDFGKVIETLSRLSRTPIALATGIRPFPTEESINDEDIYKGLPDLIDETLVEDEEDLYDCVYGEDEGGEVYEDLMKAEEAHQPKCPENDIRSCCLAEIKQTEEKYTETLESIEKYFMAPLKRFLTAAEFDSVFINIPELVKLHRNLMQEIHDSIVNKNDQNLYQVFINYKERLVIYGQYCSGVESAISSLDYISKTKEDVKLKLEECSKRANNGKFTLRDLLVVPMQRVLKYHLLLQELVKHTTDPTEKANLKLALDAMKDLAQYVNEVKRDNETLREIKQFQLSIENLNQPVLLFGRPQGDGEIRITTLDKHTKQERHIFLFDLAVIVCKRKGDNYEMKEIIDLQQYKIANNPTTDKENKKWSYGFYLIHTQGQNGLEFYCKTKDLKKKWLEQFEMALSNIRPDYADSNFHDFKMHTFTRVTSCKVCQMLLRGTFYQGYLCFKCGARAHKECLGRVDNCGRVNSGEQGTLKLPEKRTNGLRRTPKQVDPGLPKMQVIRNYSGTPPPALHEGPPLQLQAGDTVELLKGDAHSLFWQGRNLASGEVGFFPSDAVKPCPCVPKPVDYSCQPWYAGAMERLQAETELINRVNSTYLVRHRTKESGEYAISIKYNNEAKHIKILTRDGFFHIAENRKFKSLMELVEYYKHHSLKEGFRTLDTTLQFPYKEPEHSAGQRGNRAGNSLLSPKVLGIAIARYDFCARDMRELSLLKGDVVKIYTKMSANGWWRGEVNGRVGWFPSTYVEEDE
Measured Endpoint: Kd (nM)
Give just the numeric value; nM need not be written.

Fill in: Kd of OC1(c2ccccn2)N=C(Nc2nc3ccccc3[nH]2)N=C1c1ccccn1 (stereo not shown) is ___
512
